- assayed.target: MAO-B (Homo sapiens, UniProt P27338)
- Construct: purchased Merck
- Sequence (P27338 whole entry): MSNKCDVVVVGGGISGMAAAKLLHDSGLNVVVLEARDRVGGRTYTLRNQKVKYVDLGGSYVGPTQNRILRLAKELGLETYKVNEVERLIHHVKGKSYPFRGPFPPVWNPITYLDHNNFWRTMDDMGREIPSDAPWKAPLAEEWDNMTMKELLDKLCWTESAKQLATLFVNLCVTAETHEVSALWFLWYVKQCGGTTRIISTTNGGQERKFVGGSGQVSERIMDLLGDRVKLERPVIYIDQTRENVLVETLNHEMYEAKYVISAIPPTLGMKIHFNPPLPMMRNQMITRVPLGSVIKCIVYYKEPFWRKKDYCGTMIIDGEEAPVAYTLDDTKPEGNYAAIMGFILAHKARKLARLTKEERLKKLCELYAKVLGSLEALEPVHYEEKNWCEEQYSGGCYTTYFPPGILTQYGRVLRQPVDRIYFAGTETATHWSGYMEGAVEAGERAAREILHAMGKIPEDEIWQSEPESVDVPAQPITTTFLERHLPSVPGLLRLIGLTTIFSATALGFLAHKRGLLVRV
- experiment.notes: MAO-B inhibition, recombinant human enzyme, kynuramine substrate, fluorometric end-point
- Format: biochemical
- test.conditions: mean ± SD of triplicate, racemic mixtures, NI = no inhibition at 100 µM
measurement.kind: IC50 (µM)

Record excerpt, results attached:
>  <compound>
Cc1ccc(C2=NOC(C)C(=O)N2)cc1 (stereo not drawn)

>  <units>
µM

>  <IC50>
24.5

$$$$
>  <compound>
COc1ccc(C2=NOCC(=O)N2)cc1

>  <units>
µM

>  <IC50>
37.6

$$$$

(a) CCC1ON=C(c2ccc(OC)cc2)NC1=O (stereo not drawn)
(b) CCC1ON=C(c2ccc(C)cc2)NC1=O (stereo not drawn)
(c) O=C(O)CC1ON=C(c2cc(Cl)cc(Cl)c2)NC1=O (stereo not drawn)
(d) COC(=O)CC1ON=C(c2ccccn2)NC1=O (stereo not drawn)
Req: # ascending order, key=IC50 Output spec: a listing of the labels in the requested order.
Resp: b, a, d, c

(1) COC(=O)CC1ON=C(c2ccc([N+](=O)[O-])cc2)NC1=O (stereo not drawn)
(2) CCC1ON=C(c2ccc(F)cc2)NC1=O (stereo not drawn)
Req: Please indicate which item has the smaller measured IC50: 1 versus 2 Give the label of your selection.
Resp: 2
